Here the recorded EC50 is given for each entry.
- TEST SYSTEM: human H4 (Homo sapiens, UniProt Q9H3N8)
- Construct: host or cells: CHO-K1
- Sequence (Q9H3N8 whole entry): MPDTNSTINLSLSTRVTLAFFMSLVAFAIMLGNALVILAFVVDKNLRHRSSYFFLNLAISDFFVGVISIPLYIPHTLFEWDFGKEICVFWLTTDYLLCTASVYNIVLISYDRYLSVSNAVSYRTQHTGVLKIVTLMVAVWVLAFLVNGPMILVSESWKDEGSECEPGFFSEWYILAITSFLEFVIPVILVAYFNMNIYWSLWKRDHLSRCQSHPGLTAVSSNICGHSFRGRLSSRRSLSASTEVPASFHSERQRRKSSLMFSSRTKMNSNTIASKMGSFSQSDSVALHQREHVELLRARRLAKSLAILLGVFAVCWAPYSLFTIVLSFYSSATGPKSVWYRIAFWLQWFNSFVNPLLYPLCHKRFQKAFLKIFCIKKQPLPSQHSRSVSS
- TEST METHOD NOTES: In vitro histamine receptor cell-based assay (aequorin bioluminescence), H4 antagonism
- REPORTED CONDITIONS: CHO-K1 cells expressing human H4, aequorin and Gα16; histamine at EC80; read-out: H4 Antagonist EC50
- Protocol: The cell-based assays utilize an aequorin dependent bioluminescence signal. Doubly-transfected, stable CHO-K1 cell lines expressing human H1 or H4, mitochondrion-targeted aequorin, and (H4 only) human G protein Gα16 are obtained from Perkin-Elmer. […] CCD image capture on the Lumilux includes a 5 second baseline read prior to agonist addition, and generally a 40 second read per plate after agonist addition. […] Efficacy is measured as a percentage of positive control activity.

Worked examples, 8 compounds total:
Clc1ccc2nc(N3CC4CNCC4C3)c3nncn3c2c1 (centres unmarked) | > 10 µM
NCCNc1nc2ccc(Cl)cc2n2cnnc12 | > 10 µM
CN1CCN(c2nc3cc(Cl)ccc3c3nccnc23)CC1 | < 10 µM
CN(C)CCN(C)c1nc2ccc(Cl)cc2n2cnnc12 | > 10 µM
Cc1nc2c(N3CCN(C)CC3)nc3cc(F)c(F)cc3c2o1 | < 10 µM
Clc1ccc2nc(N3CCNCC3)n3ncnc3c2c1 | < 10 µM
Clc1ccc2nc(N3CCNCC3)c3nnnn3c2c1 | < 10 µM
Brc1ccc2nc(N3CCNCC3)c3nnnn3c2c1 | < 10 µM

// assay human H4 (Homo sapiens, UniProt Q9H3N8), entry CC(C)c1nc2c3cc(Cl)ccc3nc(N3CCNCC3)n2n1 , EC50 value = > 10 µM

// assay human H4 (Homo sapiens, UniProt Q9H3N8), entry Cc1nc2c(N3CCN(C)CC3)nc3cc(F)c(C)cc3n2n1 , EC50 value = < 10 µM

// assay human H4 (Homo sapiens, UniProt Q9H3N8), entry CN1CCN(c2nc3ccc(C(F)(F)F)cc3n3nnnc23)CC1 , EC50 value = < 10 µM

---

- TEST SYSTEM: UniProt:P35367
- Sequence (P35367 whole entry): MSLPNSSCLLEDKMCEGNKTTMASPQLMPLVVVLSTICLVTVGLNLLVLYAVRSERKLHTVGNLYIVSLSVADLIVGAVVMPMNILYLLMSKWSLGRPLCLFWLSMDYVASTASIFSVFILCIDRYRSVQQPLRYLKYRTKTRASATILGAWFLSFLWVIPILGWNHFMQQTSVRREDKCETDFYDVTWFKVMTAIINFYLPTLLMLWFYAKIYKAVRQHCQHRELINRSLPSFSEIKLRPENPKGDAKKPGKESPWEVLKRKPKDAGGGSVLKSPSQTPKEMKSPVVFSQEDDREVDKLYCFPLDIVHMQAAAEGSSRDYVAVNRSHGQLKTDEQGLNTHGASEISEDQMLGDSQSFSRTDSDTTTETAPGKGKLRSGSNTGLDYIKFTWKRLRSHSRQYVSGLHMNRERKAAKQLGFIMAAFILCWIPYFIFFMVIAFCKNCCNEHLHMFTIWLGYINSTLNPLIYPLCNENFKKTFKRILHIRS
- TEST METHOD NOTES: In vitro histamine receptor cell-based assay (aequorin bioluminescence), H1 antagonism
- REPORTED CONDITIONS: CHO-K1 cells expressing human H1 and aequorin; histamine at EC80; read-out: H1 Antagonist EC50
Here the recorded EC50 is given for each entry.

Worked examples, 5 compounds total:
Clc1ccc2nc(OCC3CNC3)c3nncn3c2c1 [Example 75] | > 10 µM
COc1ccc2nc(N3CCN(C)CC3)n3nc(C)nc3c2c1 [Example 101] | > 10 µM
Cc1nc2c3cc(Cl)ccc3nc(N3CCN4CCCC4C3)n2n1 (centres unmarked) [Example 245] | < 10 µM
Cn1cnc2c(N3CCNCC3)nc3ccc(Cl)cc3c21 [Example 158] | > 10 µM
CN1CCCN(c2nc3ccc(Cl)cc3n3cnnc23)CC1 [Example 68] | > 10 µM

Input CN1CCN(c2nc3cc(F)c(F)cc3n3cnnc23)CC1 [Example 37] . Output EC50: > 10 µM

Input CN1CCN(c2nc3ccc(C(F)(F)F)cc3c3cn(C)nc23)CC1 [Example 155] . Output EC50: > 10 µM

Input FC(F)(F)c1ccc2nc(N3CCNCC3)n3nc(C(F)(F)F)nc3c2c1 [Example 121] . Output EC50: > 10 µM

Input CN1CCN(c2nc3cc(Cl)ccc3c3cccnc23)CC1 [Example 249] . Output EC50: < 10 µM

Input Cc1nc2c3cc(Cl)c(Cl)cc3nc(N3CCNCC3)n2n1 [Example 94] . Output EC50: > 10 µM

Input NCCNc1nc2ccc(Cl)cc2n2cnnc12 [Example 70] . Output EC50: > 10 µM

Input C=Cc1ccc2nc(N3CCN(C)CC3)c3nncn3c2c1 [Example 88] . Output EC50: > 10 µM

Input CC(C)c1ccc2nc(N3CCN(C)CC3)c3nncn3c2c1 [Example 173] . Output EC50: > 10 µM

---

- TEST SYSTEM: human H4 (Homo sapiens, UniProt Q9H3N8)
- Construct: host or cells: CHO-K1
- TEST METHOD NOTES: In vitro histamine receptor cell-based assay (aequorin bioluminescence), H4 antagonism
pEC50: −log10 of the molar value. Where a name gives a salt, the structure may show the parent alone.
ENDPOINT LABEL: pEC50

// assay human H4 (Homo sapiens, UniProt Q9H3N8), entry FC(F)(F)c1ccc2c(c1)nc(N1CCNCC1)c1nccn12 [Example 183, hydrochloride] , pEC50 value = < 5.00

---

- TEST SYSTEM: human H4 (Homo sapiens)
- Construct: host or cells: CHO-K1
- TEST METHOD NOTES: In vitro histamine receptor cell-based assay (aequorin bioluminescence), H4 antagonism
- REPORTED CONDITIONS: CHO-K1 cells expressing human H4, aequorin and Gα16; histamine at EC80; read-out: H4 Antagonist EC50
pEC50: −log10 of the molar value. Structures can show the parent of a compound that is named as a salt.
Here the recorded pEC50 is given for each entry.

CN1CCN(c2nc3ccc(Cl)cc3n3cnnc23)CC1 [Example 55] | > 5.00
Cc1nc2c3c(F)c(C(F)(F)F)ccc3nc(N3CCN(C)CC3)n2n1.Cl [Example 126, hydrochloride] | > 5.00
Fc1cc2c(cc1C(F)(F)F)nc(N1CCNCC1)c1nncn12 [Example 43] | > 5.00
FC(F)(F)c1ccc2c(c1)nc(N1CCNCC1)c1nocc12 [Example 221] | < 5.00
CN1CCN(c2nc3ccc(Br)cc3c3c[nH]nc23)CC1 [Example 232] | > 5.00
CN1CCN(c2nc3cc(Cl)c(C(F)(F)F)cc3n3cnnc23)CC1 [Example 44] | > 5.00
CN1CCN(c2nc3ccc(C(F)(F)F)c(F)c3n3cnnc23)CC1 [Example 236] | > 5.00
FC(F)(F)c1ccc2nc(N3CCNCC3)c3[nH]ncc3c2c1 [Example 231] | > 5.00
Clc1ccc2nc(N3CCNCC3)c3nc[nH]c3c2c1 [Example 161] | > 5.00
Cc1cc2c(cc1F)nc(N1CCN(C)CC1)c1nncn12 [Example 34] | > 5.00

Input Cc1nc2c(N3CCN(C)CC3)nc3cc(F)c(Cl)cc3c2o1 [Example 216] . Output pEC50: > 5.00

Input CN1CCN(c2nc3ccc(Cl)cc3n3ccnc23)CC1 [Example 7] . Output pEC50: > 5.00

Input Cc1nc2c(N3CCN(C)CC3)nc3ccc(Cl)cc3n2n1 [Example 165] . Output pEC50: > 5.00

Input Fc1cc2c(cc1Cl)nc(N1CCNCC1)c1nnnn12 [Example 202] . Output pEC50: > 5.00

Input FC(F)(F)c1ccc2c(c1)nc(N1CCNCC1)c1nnnn12 [Example 30, hydrochloride] . Output pEC50: > 5.00

Input Clc1ccc2nc(N3CCNCC3)n3nnnc3c2c1 [Example 12] . Output pEC50: > 5.00

Input Cc1ccc2nc(N3CCNCC3)c3nnnn3c2c1 [Example 18] . Output pEC50: > 5.00

Input CN1CCN(c2nc3cc(F)c(F)cc3n3nnnc23)CC1 [Example 190] . Output pEC50: > 5.00

Input CN1CCN(c2nc3cc(Cl)c(Cl)cc3n3cnnc23)CC1 [Example 39] . Output pEC50: > 5.00

Input Cn1cc2c(n1)c(N1CC[N+](C)(C)CC1)nc1ccc(Cl)cc12 [Example 154] . Output pEC50: < 5.00

---

Here the recorded pEC50 is given for each entry.
- TEST SYSTEM: human H4 (Homo sapiens)
- Construct: host or cells: CHO-K1
- TEST METHOD NOTES: In vitro histamine receptor cell-based assay (aequorin bioluminescence), H4 antagonism
- REPORTED CONDITIONS: CHO-K1 cells expressing human H4, aequorin and Gα16; histamine at EC80; read-out: H4 Antagonist EC50
pEC50: −log10 of the molar value. Where a name gives a salt, the structure may show the parent alone.

Worked examples, 3 compounds total:
Cc1nnc2c(N3CCNCC3)nc3ccc(Cl)cc3n12 | < 5.00
CN1CCN(c2nc3ccc(C(F)(F)F)cc3c3c[nH]nc23)CC1 | > 5.00
Fc1cc2c(cc1Br)nc(N1CCNCC1)c1nncn12 | > 5.00

Input Cc1nc2c3cc(Cl)ccc3nc(N3CCN(C)CC3)n2n1 . Output pEC50: > 5.00

Input Cc1nc2c3cc(F)c(C(F)(F)F)cc3nc(N3CCNCC3)n2n1 [Example 130, hydrochloride] . Output pEC50: > 5.00

Input Clc1ccc2nc(N3CC4CCCNC4C3)c3nncn3c2c1 (stereo not drawn) . Output pEC50: > 5.00

Input CN1CCN(c2nc3ccc(C(F)(F)F)cc3c3cn(C)nc23)CC1 . Output pEC50: > 5.00

Input CN1CCN(c2nc3ccc(Cl)cc3c3ocnc23)CC1 . Output pEC50: > 5.00

Input Cl.FC(F)(F)c1ccc2nc(N3CCNCC3)c3nnnn3c2c1 [Example 29, hydrochloride] . Output pEC50: > 5.00

Input CC1(C)CN(c2nc3ccc(Cl)cc3n3cnnc23)CCN1 . Output pEC50: > 5.00

Input C=Cc1ccc2nc(N3CCN(C)CC3)c3nncn3c2c1 . Output pEC50: > 5.00

Input Cc1nc2c(N3CCN(C)CC3)nc3cc(F)c(Br)cc3n2n1 . Output pEC50: > 5.00

Input CN1CCN(c2nc3ccc(Cl)cc3c3ccoc23)CC1 . Output pEC50: > 5.00
